These data points were gathered from patent US10022422B2.

assay: Figure 6
Where a SMILES comes first, the peptide text is derived from it. Bridges are numbered along the chain shown (N, C = ends). [ ]: non-standard residue; d: D form. R8 = C=CCCCCCC[C@@](C)(N)C(=O)O; S5 = C=CCCC[C@](C)(N)C(=O)O; Nle = CCCC[C@H](N)C(=O)O; Aib = CC(C)(N)C(=O)O
Consider the following compounds; for each one, report its Vss.
Answers are plain numbers, in L/kg.

// below: answered compounds
CCCC[C@H](NC(C)=O)C(=O)N[C@@H](CC(=O)O)C(=O)N[C@H](C(=O)N[C@@H](CC(N)=O)C(=O)N1CCC[C@H]1C(=O)N[C@H](C(=O)N[C@@H](CC(C)C)C(=O)N[C@@H](CC(C)C)C(=O)N[C@@H](Cc1ccccc1)C(=O)N[C@@]1(C)CCCC=CCCC[C@@](C)(C(=O)N[C@@H](CCCNC(=N)N)C(N)=O)NC(=O)[C@H](C)NC(=O)[C@H](C(C)C)NC(=O)[C@H](CCCCN)NC1=O)[C@@H](C)O)C(C)C [SP-11, Ac-NleDVNPTLLF$KVA$R-NH2] (Ac-[Nle]DVNPTLLF[S5]KVA[S5]R-NH2; staple 10-14) : 0.178
CCCC[C@H](NC(C)=O)C(=O)N[C@@H](CC(=O)O)C(=O)N[C@H](C(=O)N[C@@H](CC(N)=O)C(=O)NC(C)(C)C(=O)N[C@H](C(=O)N[C@]1(C)CCCCCCC=CCCC[C@@](C)(C(=O)N[C@@H](CCCNC(=N)N)C(N)=O)NC(=O)[C@H](C)NC(=O)[C@H](C(C)C)NC(=O)[C@H](CCCCN)NC(=O)[C@H](CC(C)C)NC(=O)[C@H](Cc2ccccc2)NC(=O)[C@H](CC(C)C)NC1=O)[C@@H](C)O)C(C)C [SP-15, Ac-NlcDVNAibT$r8LFLKVA$R-NH2] (Ac-[Nle]DVN[Aib]T[R8]LFLKVA[S5]R-NH2; staple 7-14) : 0.226
CCCC[C@H](NC(C)=O)C(=O)N[C@@H](CC(=O)O)C(=O)N[C@H](C(=O)N[C@@H](CC(N)=O)C(=O)N1CCC[C@H]1C(=O)N[C@H](C(=O)N[C@@H](CC(C)C)C(=O)N[C@@H](CC(C)C)C(=O)N[C@@H](Cc1ccccc1)C(=O)N[C@@H](CC(C)C)C(=O)N[C@@H](CCCCN)C(=O)N[C@H](C(=O)N1CCC[C@H]1C(=O)N[C@@H](C)C(=O)N[C@@H](CCC(N)=O)C(N)=O)C(C)C)[C@@H](C)O)C(C)C [SP-1, Ac-NleDVNPTLLFLKVPAQ-NH2] : 0.241
CCCC[C@H](NC(C)=O)C(=O)N[C@@H](CC(=O)O)C(=O)N[C@H](C(=O)N[C@@H](CC(N)=O)C(=O)N1CCC[C@H]1C(=O)N[C@H](C(=O)N[C@@H](CC(C)C)C(=O)N[C@@]1(C)CCCC=CCCC[C@@](C)(C(=O)N[C@@H](C)C(=O)N[C@@H](C)C(=O)N[C@@H](CCC(N)=O)C(N)=O)NC(=O)[C@H](CCCCN)NC(=O)[C@H](CC(C)C)NC(=O)[C@H](Cc2ccccc2)NC1=O)[C@@H](C)O)C(C)C [SP-10, Ac-NleDVNPTL$FLK$AAQ-NH2] (Ac-[Nle]DVNPTL[S5]FLK[S5]AAQ-NH2; staple 8-12) : 0.29

For this compound ( CCCC[C@H](NC(C)=O)C(=O)N[C@@H](CC(=O)O)C(=O)N[C@H](C(=O)N[C@@H](CC(N)=O)C(=O)NC(C)(C)C(=O)N[C@H](C(=O)N[C@@H](CC(C)C)C(=O)N[C@@H](CC(C)C)C(=O)N[C@@H](Cc1ccccc1)C(=O)N[C@@H](CC(C)C)C(=O)N[C@@H](CCCCN)C(=O)N[C@H](C(=O)NC(C)(C)C(=O)N[C@@H](C)C(=O)N[C@@H](CCC(N)=O)C(N)=O)C(C)C)[C@@H](C)O)C(C)C [SP-2, Ac-NleDVNAibTLLFLKVAibAQ-NH2] (Ac-[Nle]DVN[Aib]TLLFLKV[Aib]AQ-NH2) ), measured Vss is 0.366
